Target: Acetylcholinesterase (Electrophorus electricus, UniProt O42275)
Sequence (O42275 whole entry): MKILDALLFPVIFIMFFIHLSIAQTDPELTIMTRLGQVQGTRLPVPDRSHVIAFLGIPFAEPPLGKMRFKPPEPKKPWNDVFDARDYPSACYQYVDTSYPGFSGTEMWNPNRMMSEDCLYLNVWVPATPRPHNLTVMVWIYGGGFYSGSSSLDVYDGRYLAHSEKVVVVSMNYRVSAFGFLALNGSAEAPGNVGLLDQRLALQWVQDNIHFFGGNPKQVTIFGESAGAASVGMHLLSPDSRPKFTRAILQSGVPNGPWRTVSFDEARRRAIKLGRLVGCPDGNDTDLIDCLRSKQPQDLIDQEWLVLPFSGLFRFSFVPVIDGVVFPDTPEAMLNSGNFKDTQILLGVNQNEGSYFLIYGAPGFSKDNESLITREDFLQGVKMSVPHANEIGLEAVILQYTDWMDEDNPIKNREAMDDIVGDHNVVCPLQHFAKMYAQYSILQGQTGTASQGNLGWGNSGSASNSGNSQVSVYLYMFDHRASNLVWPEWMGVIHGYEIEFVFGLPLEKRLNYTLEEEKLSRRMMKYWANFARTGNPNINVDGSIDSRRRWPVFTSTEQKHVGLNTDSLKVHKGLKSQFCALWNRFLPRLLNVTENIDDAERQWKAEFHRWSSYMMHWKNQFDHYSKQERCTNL
EXPERIMENTAL READOUT: pIC50
Give only the number. pIC50 is defined as minus log10 of concentration in molar units.

I have this compound here, CCn1c2ccccc2c2cc[n+](C)cc21 , and I need its recorded pIC50.
5.59

# iterate: [Br-].[Br-].c1ccc2c(c1)[nH]c1c[n+](CCCCCC[n+]3ccc4c(c3)[nH]c3ccccc34)ccc12
6.61

# iterate: C[n+]1ccc2c3ccccc3n(CCCCCn3c4ccccc4c4cc[n+](C)cc43)c2c1
6.55

# iterate: c1cc[n+](CCCCCC[n+]2ccc3c(c2)[nH]c2ccccc23)cc1
6.25
